B1: glmS ribozyme (parent)
chain: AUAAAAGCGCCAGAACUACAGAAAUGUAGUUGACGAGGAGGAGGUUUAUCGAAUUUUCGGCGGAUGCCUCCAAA

Variants of: B1
Test: self-cleavage kobs at 160 uM GlcN6P; higher = faster cleavage; RNA array
Settings: with glucosamine-6-phosphate
This sample holds only a part of the variants without activity.
In this section, each of the variants is paired with its reported self-cleavage kobs at 160 uM GlcN6P.
Parameter: self-cleavage kobs at 160 uM GlcN6P

{"Sequence Data": "AUAAAAGCGCCAGAACUACAGAAAUGUAGUUGACUACGAGGAGGCUUAUCGAAUUUUCGGCGGAUGCCUCCAAA [G35U G37C U45C]", "Value Measured": "< 1e-05 s⁻¹"}
{"Sequence Data": "AUAAAAGCACCAGAACUACAGAAAUGUAGUUGACGAGGAGGAUGUUUAUCGAAUUUUCGGCGGAUGCCUCCAAA [G9A G43U]", "Value Measured": "< 1e-05 s⁻¹"}
{"Sequence Data": "AUAAAAGCGCCAGAACUACAGAAAUGUAGUUCUCGAGGAGGAGGUUUAUCGAAUUUUCGGCGGAUGCCUCCAAA [G32C A33U]", "Value Measured": "< 1e-05 s⁻¹"}
{"Sequence Data": "AUAAAAGCGCCAGAACUACAGAAAUGUAGUUCACGAGGAGGAGGUUAAUCGAAUUUUCGGCCGGUGCCUCCAAA [G32C U47A G62C A64G]", "Value Measured": "< 1e-05 s⁻¹"}
{"Sequence Data": "AUAAAAGCGCCAGAACUACAGAAAUGUAGUUGUCGCGGAGGAAGUUUAUCGAAUUUUCGGCGGAUGCCUGCAAA [A33U A36C G43A C70G]", "Value Measured": "< 1e-05 s⁻¹"}
{"Sequence Data": "AUAAAAGCGCCAGUACUACAGAAAUGUAGUUGACGAGGAGGAGGUUUACCGAAUUUUCGGCGGAUGCCUCCAAA [A14U U49C]", "Value Measured": "< 1e-05 s⁻¹"}
{"Sequence Data": "AUAAACGCGCCAGAACUACAGAAAUGUAGUUCACGAGGAGGAGGUUUAUCGAAUUUUCGGCGGAUGCCUCCAAA [A6C G32C]", "Value Measured": "< 1e-05 s⁻¹"}
{"Sequence Data": "AUAAAAGCGCCAGAACUACAGAAAUGUAGUUGACGAGGAGGAGGUUAAUCGAAUUUUCGGCUGAUGCCUCCAAA [U47A G62U]", "Value Measured": "< 1e-05 s⁻¹"}
{"Sequence Data": "AUAAAAGCGCCAGACCUACAGAAAUGUAGUUGACGAGGAGGAGGUUUAUCGAAUUUUCGGUGGAUGCCUCCAAA [A15C C61U]", "Value Measured": "< 1e-05 s⁻¹"}
{"Sequence Data": "AUAAAAGCGCCAGAACUACAGAAAUGUACUUGACGAGGAGGAGGUUUAUCGAAUUUUCGGCGGACGCCUCCAAA [G29C U65C]", "Value Measured": "< 1e-05 s⁻¹"}
{"Sequence Data": "AUAAAAGCGCCAGAACUACAGAAAUGUAGUUGACGAGGAGAAGGUUUUUCGAAUUUUCGGCGGUUGCCUCAAAA [G41A A48U A64U C71A]", "Value Measured": "< 1e-05 s⁻¹"}
{"Sequence Data": "AUAAAAGCGCCAGAACUACAGAAAUGUAGUUGACGCGGAGGAGGUUUAUCGCAUUUUCGGCGGAUGCCUCCAAA [A36C A52C]", "Value Measured": "< 1e-05 s⁻¹"}
{"Sequence Data": "AUAAAAGCGCCAGAACUACAGAAAUGUAGUUGACGAGGAGGAGAUUUAUCGAAUUUUCGGCGGAUCCCUCCAAA [G44A G66C]", "Value Measured": "< 1e-05 s⁻¹"}
{"Sequence Data": "AUAAAAGCGCCAGAACUACAGAAAUGUAGUUGACGUGGAGGAGGUUUAUCGAAUUUCCGGCGGAUGCCUCCAAA [A36U U57C]", "Value Measured": "< 1e-05 s⁻¹"}
{"Sequence Data": "AUAAAAGCGCCAGAACUACAGAAAUGUAGUAGACGAGGUGGAGGUUUAUCGAAUUUUCGGCGGAUGCCUCCAAA [U31A A39U]", "Value Measured": "0.000508 s⁻¹"}
{"Sequence Data": "AUAAAAGCGCCAGAACUACAGAAAUGUAGUUGACGAGACUGAAGUUUAGCGAACUUUCGGCGGAUGCCUCCAAA [G38A A39C G40U G43A U49G U54C]", "Value Measured": "< 1e-05 s⁻¹"}
{"Sequence Data": "AUAAAAGCCCCAGAACUACAGAAAUGUAGUUGACGAGGAGGAGGUUUAUCGAAUUCUCGGCGGAUGUCUCGAAA [G9C U56C C67U C71G]", "Value Measured": "< 1e-05 s⁻¹"}
{"Sequence Data": "AUAAAAGCGCUAGAACUACAGAAAUGUAGUUGACGAGGAGGAGGUGUAUGGAAUUUUCGGCGGAUGCCUCCAAA [C11U U46G C50G]", "Value Measured": "5.55e-05 s⁻¹"}
{"Sequence Data": "AUAAAAGCGCCAGAACUACAGAAAUGUAGUAGACGAGGAGGAGGUUUAUCGAAAUUUCGGCGGAUGCCUCCAAA [U31A U54A]", "Value Measured": "0.00112 s⁻¹"}
{"Sequence Data": "AUAAAAGCGCCCGAACUACAGAAAUGUAGUUGACGAGGAGGAGGUUUAUCGAAUUUUCGGCGGAUGCCUCUAAA [A12C C71U]", "Value Measured": "0.00112 s⁻¹"}
{"Sequence Data": "AUAAAAGCGCCAGAGCUACAGAAAUGUACUUGACGAGGAGGAGGUUUAUCGAAUUUUCGGCGGAUGCCUCCAAA [A15G G29C]", "Value Measured": "0.000187 s⁻¹"}
{"Sequence Data": "AUAAAAGCGCCAGAACUACAGAAAUGUAGUUCACGAGGAGGAGGUUUAUCGAAUCUUCGGCGGAUGCCUCCAAA [G32C U55C]", "Value Measured": "< 1e-05 s⁻¹"}
{"Sequence Data": "AUAAAAGCGCGAGAACUACAGAAAUGUAGUUGACGAGGAGGAGGUUUAUGGAAUUUUCGGCGGAUGCCUCCAAA [C11G C50G]", "Value Measured": "0.00024 s⁻¹"}
{"Sequence Data": "AUAAAAGCACCAGAACUACAGAAAUGUAGUAGACGAGGAGGAGGUUUAUCGAAUUUUCGGCGGAUGCCUCCAAA [G9A U31A]", "Value Measured": "< 1e-05 s⁻¹"}
{"Sequence Data": "AUAAAAGCGCCAGAACUACAGAAAUGUAGUUGACGCGGAGGAGGUUUAUCGAAUUAUCGGCGGAUGCCUCCAAA [A36C U56A]", "Value Measured": "< 1e-05 s⁻¹"}
{"Sequence Data": "AUAAAAGCGCCAGAACUACAGAAAUGUAGUUAACGAGGAGGAGGUUUAUCGAAUUUUCCGCGGAUGCCUCCAAA [G32A G59C]", "Value Measured": "< 1e-05 s⁻¹"}
{"Sequence Data": "AUAAAAGCGCCAGAUCUACAGAAAUGUAGUUGACGAGGAGGAGGUUUAUCGAAUUUUCGGCGGAUGCCUCUAAA [A15U C71U]", "Value Measured": "0.00037 s⁻¹"}
{"Sequence Data": "AUAAAAGCGCCAGAACUACAGAAAUGUAGUUGACGAGGAUGAGGUUCAUCGAAUUUUCGGCGGAUGCCUCCAAA [G40U U47C]", "Value Measured": "0.000104 s⁻¹"}
{"Sequence Data": "AUAAAAGCGCCAUAACUACAGAAAUGUAGUUGACGAGGAGUAGGUUUAUCGAAUUUUCGGGGGAUGCCUCGAAA [G13U G41U C61G C71G]", "Value Measured": "< 1e-05 s⁻¹"}
{"Sequence Data": "AUAAAAGUGCCAUAACUACAGAAAUGUAGUUGACGAGGAGGAAGUUUAUCGAAUUUUCGGGGGAUGCCUCCAAA [C8U G13U G43A C61G]", "Value Measured": "< 1e-05 s⁻¹"}
{"Sequence Data": "AUAAAAGCGCCAGAACUACAGAAAUGUAGUUGACGAGGAGGCGGUUUAUCGAAUUUUCGGCGGACGCCUCCAAA [A42C U65C]", "Value Measured": "< 1e-05 s⁻¹"}
{"Sequence Data": "AUAAAAGCGCCAGAACUACAGAAAUGUAGUUGAUGAGGACGAGGUUAAUCGAAUUUUCGGCGGAUGGCUCCAAA [C34U G40C U47A C67G]", "Value Measured": "< 1e-05 s⁻¹"}
{"Sequence Data": "AUAAAAGCGCCAGAACUACAGAAAUGUAAUUGACGAGGUGGAGGUUUAUCGAAUUUUCGGCGGAUGCCUCCAAA [G29A A39U]", "Value Measured": "0.000177 s⁻¹"}
